- ASSAY TARGET: GluA1o-γ8 (Homo sapiens, UniProt P42261+Q8WXS5)
- Construct: expressed in transfected cells
- Sequence (P42261+Q8WXS5 fused): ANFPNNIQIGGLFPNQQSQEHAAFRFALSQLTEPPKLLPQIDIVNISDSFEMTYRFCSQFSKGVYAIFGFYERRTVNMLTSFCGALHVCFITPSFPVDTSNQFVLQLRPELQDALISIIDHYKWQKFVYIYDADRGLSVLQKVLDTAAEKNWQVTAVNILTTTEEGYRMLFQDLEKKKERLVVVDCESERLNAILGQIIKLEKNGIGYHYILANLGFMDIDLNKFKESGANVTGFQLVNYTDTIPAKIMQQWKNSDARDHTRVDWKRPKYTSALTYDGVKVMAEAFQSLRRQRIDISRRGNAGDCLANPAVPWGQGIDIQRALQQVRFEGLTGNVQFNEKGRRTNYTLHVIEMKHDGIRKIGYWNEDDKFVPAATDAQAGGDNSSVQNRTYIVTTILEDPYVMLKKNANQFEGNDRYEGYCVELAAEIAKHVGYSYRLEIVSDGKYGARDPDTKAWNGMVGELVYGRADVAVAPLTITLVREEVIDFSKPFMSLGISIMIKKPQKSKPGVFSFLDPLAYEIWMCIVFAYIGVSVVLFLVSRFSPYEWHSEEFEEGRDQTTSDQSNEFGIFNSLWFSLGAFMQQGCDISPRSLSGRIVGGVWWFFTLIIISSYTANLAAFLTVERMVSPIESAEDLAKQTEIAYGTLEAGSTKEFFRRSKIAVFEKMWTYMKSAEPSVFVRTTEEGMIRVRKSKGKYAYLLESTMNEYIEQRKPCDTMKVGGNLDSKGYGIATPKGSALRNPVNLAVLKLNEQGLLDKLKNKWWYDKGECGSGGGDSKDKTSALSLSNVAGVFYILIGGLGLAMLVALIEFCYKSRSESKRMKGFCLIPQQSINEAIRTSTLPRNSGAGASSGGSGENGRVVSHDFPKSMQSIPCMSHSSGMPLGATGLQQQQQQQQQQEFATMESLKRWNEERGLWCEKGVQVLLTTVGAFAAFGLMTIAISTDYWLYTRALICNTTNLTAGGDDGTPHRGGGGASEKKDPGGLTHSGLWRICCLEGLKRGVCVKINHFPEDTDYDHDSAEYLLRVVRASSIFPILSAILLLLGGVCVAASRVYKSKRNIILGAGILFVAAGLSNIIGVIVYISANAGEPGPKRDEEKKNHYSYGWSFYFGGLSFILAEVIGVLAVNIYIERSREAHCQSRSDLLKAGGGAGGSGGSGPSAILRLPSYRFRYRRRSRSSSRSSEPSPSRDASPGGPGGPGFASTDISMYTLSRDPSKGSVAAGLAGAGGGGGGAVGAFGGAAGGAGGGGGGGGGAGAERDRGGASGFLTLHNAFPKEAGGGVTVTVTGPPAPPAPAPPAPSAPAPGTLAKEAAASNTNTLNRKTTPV
- EXPERIMENT SUMMARY: Calcium flux assay (FLIPR), inhibition of glutamate response of GluA1o-γ8 channel in HEK293 cells
- Type: cell-based
- COND: HEK293 cells stably expressing GRIA1o-CACNG8 fusion; 15 μM glutamate; pIC50 = negative log of the IC50 in molar; read-out: GluR1-γ8 pIC50 (converted)
Checkbox rule: IC50 lower than 5 nM = Y; IC50 not lower than 5 nM = N.

| INPUT SMILES | LABEL |
| --- | --- |
| O=C1Cc2cc(-c3c(Cl)cccc3OC(F)(F)F)cc(C(F)(F)F)c2N1 | Y |
| Cc1cc(-c2c(Cl)cncc2OC(F)(F)F)cc2c1NC(=O)C2 | Y |
| O=C1Cc2cc(-c3c(Cl)cccc3OC(F)F)cc(F)c2N1 | N |
| CCc1cc(-c2c(Cl)cccc2OC(F)(F)F)cc2c1NC(=O)C2 | Y |
| N#Cc1ccc(Cl)c(-c2cc(Cl)c3c(c2)CC(=O)N3)c1OC(F)(F)F | Y |
| Cc1cc(-c2c(C)cccc2C)cc2c1NC(=O)C2 | Y |
| Cc1cc(-c2c(Cl)cncc2Cl)cc2c1NC(=O)C2 | N |
| O=C1Cc2cc(-c3c(Cl)cccc3Cl)ccc2N1 | N |
